Tested on: HOP-62 NSCLC
Assay Method Text: NCI-60 one-dose screen, 48 h
Condition Parameters: 10 µM unless noted
The panel holds about 83,000 compounds, 20% with a hit somewhere; the sample as a whole holds those more often. Calls of active or inactive are those of the source. The calls were made as follows: active = growth percent below 10; inactive = the rest.
Outcomes: label 1 = active, label 0 = inactive

- Molecule: "Cc1nn(C)c2ncnc(Nc3ccccc3Br)c12"
  Group: "label 0"
- Molecule: "C=CCn1c(SCC(=O)Nc2ccc(C(=O)/C=C/c3cc(OC)c(OC)c(OC)c3)cc2)nnc1-c1cc(-c2ccc(S(N)(=O)=O)cc2)nc2ccccc12"
  Group: "label 0"
- Molecule: "COc1ccc(S(=O)(=O)NC2c3ccccc3CC2O)cc1OC (stereo not given)"
  Group: "label 0"
- Molecule: "CCOC(=O)c1c(N)sc2cc(O)ccc12"
  Group: "label 0"
- Molecule: "Nc1cc(-c2ccc(Cl)cc2)nn1-c1nc(-c2ccc(Br)cc2)cs1"
  Group: "label 0"
- Molecule: "c1ccc(-c2cn3nc(-c4c[nH]c5ccccc45)sc3n2)cc1"
  Group: "label 0"
- Molecule: "COC(=O)c1sc(-c2ccc(C)cc2)cc1O"
  Group: "label 0"
- Molecule: "O=C(c1ccc(F)cc1)C1CCN(CCn2c(=O)[nH]c3ccccc3c2=O)CC1"
  Group: "label 0"
- Molecule: "CSc1nc(CC(C)C)c(C#N)c(=O)n1C"
  Group: "label 0"
- Molecule: "Cn1ccnc1C(=O)/C=C/c1ccc(CC(=O)Nc2cc(F)c(F)c(F)c2)cc1"
  Group: "label 0"
- Molecule: "O=C1/C(=C/c2ccc(-c3ccc(Cl)cc3)o2)SC(=S)N1CCc1ccc(O)cc1"
  Group: "label 0"
- Molecule: "COc1ccc2c(O)cc3c(c2c1)[C@H](CCl)CN3C(=O)c1cc2cc(NC(=O)CCN3CCOCC3)ccc2[se]1"
  Group: "label 1"
- Molecule: "COc1cc(/C=C2\\C(=O)N(CCOc3cc(O)c4c(=O)cc(-c5ccccc5)oc4c3)c3ccccc32)cc(OC)c1O"
  Group: "label 0"
- Molecule: "O=C1/C(=C/c2cccc(Br)c2)COc2ccc(O)c(O)c21"
  Group: "label 1"
- Molecule: "COc1nc2ccccc2cc1/C=[N+](\\[O-])c1ccccc1"
  Group: "label 0"
- Molecule: "CCN1CCN(CCOc2ccc(CNc3ccc4nc(CCC5CCCCC5)[nH]c4c3)cc2)CC1"
  Group: "label 0"
- Molecule: "C=C(C)[C@@H]1CC[C@]2(COC(=O)c3cccnc3)CC[C@]3(C)[C@H](CC[C@@H]4[C@@]5(C)CCCN(C(=O)c6cccnc6)C(C)(C)[C@@H]5CC[C@]43C)[C@@H]12"
  Group: "label 0"
- Molecule: "CN1CCN(Cc2ccc(NC(=O)c3cncc(C#Cc4cnc(N)c5ccc(C#N)cc45)c3)cc2C(F)(F)F)CC1"
  Group: "label 1"
- Molecule: "C#CCOC(=O)C(N)CSSCC(N)C(=O)O (stereo not given)"
  Group: "label 0"
- Molecule: "CN1CCN(CCCNC(=O)c2c3c(n4ccccc24)C(=O)c2ncccc2C3=O)CC1"
  Group: "label 0"

====

Test system: KM12 colon
Assay Method Text: NCI-60 one-dose screen, 48 h (100 = growth as untreated, 0 = no growth, -100 = all killed)
Condition Parameters: 10 µM unless noted
Experimental: Growth inhibition of the KM12 human tumor cell line is measured as a screen for anti-cancer activity. Cells are grown in 96 well plates and exposed to the test compound for 48 hours. Compounds are tested at a single concentration, which is 10^-5 M for most compounds. The reported endpoint is percent growth (GI% or GIPRCNT), where numbers from 0 - 100% represent growth inhibition, and numbers from -100% - 0 represent cell death. For example, a value of 40 represents 60% growth inhibition. […]
Compounds without any hit were thinned out: in the full panel of roughly 83,000, 20% have a hit.

- Compound: "CN1CC(c2ccccc2)C(C(=O)c2ccc(Br)cc2)C12C(=O)Nc1ccccc12 (stereo not given)"
  growth (%): 101
- Compound: "CC1=C(C(=O)c2ccccc2)C(c2ccc3c(c2)OCO3)NC(=S)N1 (stereo not given)"
  growth (%): 20
- Compound: "O=C(CNc1ncco1)Nc1ccc(S(=O)(=O)c2ccc(NC(=O)CNc3ncco3)cc2)cc1"
  growth (%): 94.8
- Compound: "CN1CCN(Cc2ccc(NC(=O)c3cncc(C#Cc4c(N)ncc5ccccc45)c3)cc2C(F)(F)F)CC1"
  growth (%): -65.2
- Compound: "COc1cc(-c2c(-c3ccccc3)c[nH]c2C(=O)NCCCO)c(OC)c2c1OCO2"
  growth (%): 125
- Compound: "CCOc1ccccc1NC(=O)CCC(=O)OC"
  growth (%): 100
- Compound: "COc1ccc(C(=O)/C=C/c2ccc(Cl)cc2)cc1S(N)(=O)=O"
  growth (%): 28.2
- Compound: "CCOC(=O)c1c(C)n2c(=O)cc(C)c3c(OC(C)=O)c(OC(C)=O)cc1c32"
  growth (%): 86.7
- Compound: "C=CCn1c(SCC(=O)Nc2ccc(C(=O)/C=C/c3cc(OC)c(OC)c(OC)c3)cc2)nnc1-c1cc(-c2ccc(S(N)(=O)=O)cc2)nc2ccccc12"
  growth (%): 59.8
- Compound: "O=C1NC(=O)C(=Cc2cc(-c3ccc(Cl)cc3)n(-c3ccccc3)n2)C(=O)N1"
  growth (%): 102
